Tested on: HT29
TEST_DESCRIPTION: Growth inhibition test (MTT), cytotoxic action on tumour cell lines
Assay type: cell-based, human
RUN_CONDITIONS: HT29; MTT after day 6; read-out: IC50 values of the cytotoxic action on tumour cell lines, HT29
*1 amine or outer side, *2 acyl side, *3 side chain or, on linkers, in order; H or OH if unused. Where a SMILES comes first, the peptide text is derived from it. [ ]: non-standard residue; d: D form. The star is where a group is joined. Camptothecin(20R,20-O) = CC[C@]1(O*)C(=O)OCc2c1cc1n(c2=O)Cc2cc3ccccc3nc2-1; X2 = CCCNC(=O)Nc1cccc(S(=O)(=O)Nc2cccc(C(CC(=O)O)NC(=O)Nc3ccc(N*)cc3)c2)c1; CO = O=C([*:1])[*:2]; GABA = NCCCC(=O)O
Entries annotated with measured pIC50
In simple prose, pIC50 is minus the logarithm base ten of a concentration in moles per litre.

# assay system HT29: give pIC50 of CCCNC(=O)Nc1cccc(S(=O)(=O)Nc2cccc(C(CC(=O)O)NC(=O)Nc3ccc(NC(=O)NCCCC(=O)N4CCC[C@@H]4C(=O)N[C@@H](CC(C)C)C(=O)NCC(=O)N[C@H](CC(C)C)C(=O)N[C@H](Cc4c[nH]cn4)C(=O)N[C@@H](C(=O)O[C@@]4(CC)C(=O)OCc5c4cc4n(c5=O)Cc5cc6ccccc6nc5-4)C(C)C)cc3)c2)c1 (stereo partly drawn) [Example 17] ({X2-CO-GABA}-[dP]LG[dL][dH][dV]-{Camptothecin(20R,20-O)})
7.00

---
# assay system HT29: give pIC50 of CCCNC(=O)Nc1cccc(S(=O)(=O)Nc2cccc(C(CC(=O)O)NC(=O)Nc3ccc(NC(=S)N4CCC[C@H]4C(=O)N[C@@H](CC(C)C)C(=O)NCC(=O)N[C@@H](CC(C)C)C(=O)N[C@H](C)C(=O)N[C@H](C(=O)O[C@]4(CC)C(=O)OCc5c4cc4n(c5=O)Cc5cc6ccccc6nc5-4)C(C)C)cc3)c2)c1 (some centres unmarked)
6.60

* * *

Test system: HT29
TEST_DESCRIPTION: Growth inhibition test (MTT), cytotoxic action on tumour cell lines
Assay type: cell-based, human
RUN_CONDITIONS: HT29; MTT after day 6; read-out: IC50 values of the cytotoxic action on tumour cell lines, HT29
*1 amine or outer side, *2 acyl side, *3 side chain or, on linkers, in order; H or OH if unused. Where a SMILES comes first, the peptide text is derived from it. [ ]: non-standard residue; d: D form. The star is where a group is joined. ξ: configuration not given here. Camptothecin(20R,20-O) = CC[C@]1(O*)C(=O)OCc2c1cc1n(c2=O)Cc2cc3ccccc3nc2-1; X2 = CCCNC(=O)Nc1cccc(S(=O)(=O)Nc2cccc(C(CC(=O)O)NC(=O)Nc3ccc(N*)cc3)c2)c1; X1 = CCCNC(=O)Nc1cccc(S(=O)(=O)Nc2cccc(C(CC(=O)O)N*)c2)c1; NH(1,4-C6H4)NHCS = S=C(Nc1ccc(N[*:1])cc1)[*:2]; ξH = NC(Cc1c[nH]cn1)C(=O)O; CO = O=C([*:1])[*:2]
Entries annotated with measured pIC50
In simple prose, pIC50 is minus the logarithm base ten of a concentration in moles per litre.

Guide cases for pIC50, answers given:
Output pIC50 of CCCNC(=O)Nc1cccc(S(=O)(=O)Nc2cccc(C(CC(=O)O)NC(=O)Nc3ccc(NC(=O)N4CCC[C@@H]4C(=O)N[C@@H](CC(C)C)C(=O)NCC(=O)N[C@H](CC(C)C)C(=O)N[C@H](Cc4c[nH]cn4)C(=O)N[C@@H](C(=O)O[C@@]4(CC)C(=O)OCc5c4cc4n(c5=O)Cc5cc6ccccc6nc5-4)C(C)C)cc3)c2)c1 (stereo partly drawn) [Example 6] ({X2-CO}-[dP]LG[dL][dH][dV]-{Camptothecin(20R,20-O)})
7.40

Output pIC50 of CCCNC(=O)Nc1cccc(S(=O)(=O)Nc2cccc(C(CC(=O)O)NC(=O)Nc3ccc(NC(=S)N4CCC[C@@H]4C(=O)N[C@@H](CC(C)C)C(=O)NCC(=O)N[C@H](Cc4c[nH]cn4)C(=O)N[C@@H](C(=O)O[C@@]4(CC)C(=O)OCc5c4cc4n(c5=O)Cc5cc6ccccc6nc5-4)C(C)C)cc3)c2)c1 (single isomer, unassigned)
7.30

Now examine the next entry.
Output pIC50 of CCCNC(=O)Nc1cccc(S(=O)(=O)Nc2cccc(C(CC(=O)O)NC(=O)Nc3ccc(NC(=S)N4CCC[C@@H]4C(=O)NC(Cc4c[nH]cn4)C(=O)NCC(=O)N[C@H](CC(C)C)C(=O)N[C@H](CC(N)=O)C(=O)N[C@@H](C(=O)O[C@@]4(CC)C(=O)OCc5c4cc4n(c5=O)Cc5cc6ccccc6nc5-4)C(C)C)cc3)c2)c1 (stereo partly drawn) [Example 24] ({X1-CO}-[NH(1,4-C6H4)NHCS][dP][ξH]G[dL][dN][dV]-{Camptothecin(20R,20-O)})
6.82
